Read-out: growth arrest and DNA damage 45 (GADD45G), GADD45G (gene 10912)
Experiment: LTEA_HepaRG_GADD45G: Life Technologies and Expression Analysis (LTEA) Assay for growth arrest and DNA damage 45 (GADD45G) using HepaRG (AID 2283499)
Settings: mRNA level, 48 h; actives raise or lower the signal
Activity calls are given as the source filed them. Rule for the calls: active = hit-call score of the fitted dose curve at least 0.9, where 1 is the maximum; inactive = score below 0.9.
Classes used: label 1 for active, label 0 for inactive

Compound: CCCCOC(=O)[C@@H](C)Oc1ccc(Oc2ccc(C#N)cc2F)cc1
Category Label: label 0

Compound: CSc1nc(NC(C)C)nc(NC(C)C)n1
Category Label: label 1

Compound: FC(F)C(F)(F)OCC(Cn1cncn1)c1ccc(Cl)cc1Cl (stereo unspecified)
Category Label: label 1

Compound: CCCCOC(=O)c1ccccc1C(=O)O
Category Label: label 0

Compound: CCOP(=S)(OCC)OC(Cl)C(Cl)(Cl)Cl (stereo unspecified)
Category Label: label 0

Compound: CC(Oc1cccc(Cl)c1)C(=O)O (stereo unspecified)
Category Label: label 0

Compound: CN1COCN(Cc2cnc(Cl)s2)C1=N[N+](=O)[O-]
Category Label: label 0

Compound: CCOC(=O)COc1cc(-c2nn(C)c(OC(F)F)c2Cl)c(F)cc1Cl
Category Label: label 0

Compound: Cc1cc(C2CC2)nc(Nc2ccccc2)n1
Category Label: label 1

Compound: CCCSP(=O)(OCC)SCCC
Category Label: label 0

Compound: CCCOCC(=Nc1ccc(Cl)cc1C(F)(F)F)n1ccnc1
Category Label: label 0

Compound: CCc1cccc(CC)c1N(COC)C(=O)CCl
Category Label: label 0

Compound: CNC(=O)ON=C(SC)C(=O)N(C)C
Category Label: label 0

Compound: COc1cc(OC)nc(Sc2cccc(Cl)c2C(=O)O)n1
Category Label: label 0

Compound: COc1ccc(C(=CC(=O)N2CCOCC2)c2ccc(Cl)cc2)cc1OC
Category Label: label 0

Compound: CN(C)NC(=O)CCC(=O)O
Category Label: label 0

Compound: C=C(C)[C@H]1Cc2c(ccc3c2O[C@@H]2COc4cc(OC)c(OC)cc4[C@@H]2C3=O)O1
Category Label: label 1

Compound: C#CCC1=C(C)C(OC(=O)C2C(C=C(C)C)C2(C)C)CC1=O (stereo unspecified)
Category Label: label 0

Compound: CCCCN(CC)c1c([N+](=O)[O-])cc(C(F)(F)F)cc1[N+](=O)[O-]
Category Label: label 0

Compound: CCOP(=S)(OCC)Oc1cc(C)nc(C(C)C)n1
Category Label: label 0

Compound: CCOP(=S)(OCC)Oc1ccc([N+](=O)[O-])cc1
Category Label: label 0

Compound: CCOP(=S)(Oc1cnc(C(C)(C)C)nc1)OC(C)C (stereo unspecified)
Category Label: label 0

Compound: CCC(=O)Nc1ccc(Cl)c(Cl)c1
Category Label: label 0

Compound: CN(C)C(=O)Nc1cccc(C(F)(F)F)c1
Category Label: label 0

Compound: O=C(O)c1cc(Oc2ccc(C(F)(F)F)cc2Cl)ccc1[N+](=O)[O-]
Category Label: label 0

Compound: Cc1ccn2nc(S(=O)(=O)Nc3c(F)cccc3F)nc2n1
Category Label: label 0

###

Read-out: CD69, CD69 (gene 969)
Assay: BSK_SAg_CD69: BioMAP Diversity Plus: SAg Assay for CD69 Biomarker Activity (AID 2283089)
Details: primary human HUVEC with PBMC; actives raise or lower the signal
Calls of active or inactive are those of the source. The calls were made as follows: active = hit-call score of the fitted dose curve at least 0.9, where 1 is the maximum; inactive = score below 0.9.
Classes used: active, inactive

Molecule: CCNc1nc(Cl)nc(NC(C)(C)C#N)n1
Category Label: inactive
--
Molecule: CCCCN(CC)c1c([N+](=O)[O-])cc(C(F)(F)F)cc1[N+](=O)[O-]
Category Label: inactive
--
Molecule: CNC(=O)ON=C(SC)C(=O)N(C)C
Category Label: inactive
--
Molecule: CCOP(=S)(Oc1cnc(C(C)(C)C)nc1)OC(C)C (stereo unspecified)
Category Label: active
--
Molecule: CCOP(=O)(SC(C)CC)N1CCSC1=O (stereo unspecified)
Category Label: inactive
--
Molecule: CC(C)=CC1C(C(=O)OCN2C(=O)C3=C(CCCC3)C2=O)C1(C)C (stereo unspecified)
Category Label: active
